Experiment: Luminescence Cell-Based Dose Retest to Confirm Inhibitors of Cancer Stem Cells. [Related pubchem assays (depositor defined):AID2717, AID2721]
Assay type: functional
Conditions: Homo sapiens
The source made the active and inactive calls.
measured-parameter: AC50

Solved entries:
{"columns": ["molecule", "recorded-result"],
 "data": [
  ["Cc1nc(C2CCC3C4CCC5=CC(=O)CC[C@]5(C)C4CC[C@]23C)cs1 (stereo not given in full)", "6.32 µM (active)"],
  ["CN(C)c1ccc(-c2cc([C@H]3[C@@H]4C=CCC[C@@]4(C)C(=O)N3Cc3ccccc3)ccc2F)cc1", "2.28 µM (active)"],
  ["S=C(Nc1cc(Cl)cc(Cl)c1)NC1CCN(Cc2ccccc2)CC1", "5.23 µM (active)"],
  ["O=C(Nc1cccc(S(=O)(=O)N2CCCCC2)c1)c1ccc([N+](=O)[O-])o1", "2.44 µM (active)"]
]}

Read the next record carefully.
Report measured AC50; entry is CCN(CC)CCNc1ncnc2c1sc1nc(N3CCOCC3)c3c(c12)CC(C)(C)SC3
8.39 µM (active)

---

Target: Caspase-6 (Homo sapiens)
Sequence (P55212 whole entry): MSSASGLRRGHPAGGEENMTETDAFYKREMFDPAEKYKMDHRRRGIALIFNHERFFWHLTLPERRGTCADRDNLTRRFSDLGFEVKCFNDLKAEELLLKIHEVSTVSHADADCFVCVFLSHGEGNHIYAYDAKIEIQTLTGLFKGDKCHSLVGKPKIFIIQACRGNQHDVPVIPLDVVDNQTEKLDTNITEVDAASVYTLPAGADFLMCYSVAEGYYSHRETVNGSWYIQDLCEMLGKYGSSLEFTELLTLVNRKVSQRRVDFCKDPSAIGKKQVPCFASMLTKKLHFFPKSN
Test: human caspase-6 inhibitors, dose response, biochemical, VEID-R110 fluorescence, cherry-pick (AID 720632)
The source made the active and inactive calls.
measured-parameter: AC50

{"columns": ["smiles-repr", "AC50"],
 "data": [
  ["O=C(O)c1ccc(N=Nc2c(O)[nH]c3cc(Cl)ccc23)cc1", "49.4 µM (active)"],
  ["Nc1cc2cccnc2cc1Cl", "25.6 µM (active)"],
  ["O=c1oc2c(cc1O)oc(=O)c1cc(O)c(O)c(O)c12", "0.484 µM (active)"]
]}

Input O=C(COC(=O)Cc1ccccc1)Nc1cc(S(=O)(=O)N2CCCCC2)ccc1Cl , output reported AC50.
38.3 µM (active)

Kindly indicate its recorded AC50. Item: COc1cc(/C=C2\SC(=S)N(CC(=O)O)C2=O)ccc1OS(=O)(=O)c1ccc(C)cc1
46.2 µM (active)

Given the compound Nc1ccc(OC(=O)Nc2ccc(O)cc2)cc1 , write its reported AC50.
18.7 µM (active)

---

Biological target: Large T antigen (Simian virus 40);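 note: Confirmatory-stage PubChem screen for compounds that inhibit SV40 T antigen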
Sequence (P03070 whole entry): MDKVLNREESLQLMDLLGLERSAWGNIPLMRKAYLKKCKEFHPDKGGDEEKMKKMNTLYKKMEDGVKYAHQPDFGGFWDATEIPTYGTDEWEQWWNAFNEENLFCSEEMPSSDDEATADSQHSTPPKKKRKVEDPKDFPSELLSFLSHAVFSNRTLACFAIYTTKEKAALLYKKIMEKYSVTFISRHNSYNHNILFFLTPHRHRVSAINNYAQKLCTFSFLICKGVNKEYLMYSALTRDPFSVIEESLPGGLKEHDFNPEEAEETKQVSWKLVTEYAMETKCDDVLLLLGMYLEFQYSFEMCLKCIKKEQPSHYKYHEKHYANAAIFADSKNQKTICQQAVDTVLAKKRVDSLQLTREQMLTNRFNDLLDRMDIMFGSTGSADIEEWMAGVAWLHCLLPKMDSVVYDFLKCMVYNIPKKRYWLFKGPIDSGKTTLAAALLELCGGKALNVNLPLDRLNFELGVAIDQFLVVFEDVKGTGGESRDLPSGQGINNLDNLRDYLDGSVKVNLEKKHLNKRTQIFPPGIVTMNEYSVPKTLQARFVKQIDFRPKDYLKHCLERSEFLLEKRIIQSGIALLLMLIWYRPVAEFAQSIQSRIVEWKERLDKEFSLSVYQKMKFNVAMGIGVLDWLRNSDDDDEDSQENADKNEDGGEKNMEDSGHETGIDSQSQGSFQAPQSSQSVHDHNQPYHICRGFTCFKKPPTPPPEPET
Type: functional, Betapolyomavirus macacae
Active and inactive are the calls of the source.
measured-parameter: IC50

{"columns": ["molecule", "IC50"],
 "data": [
  ["COc1cc(/C=N/NC(=O)c2ccccc2)ccc1O", "10.5 µM (active)"]
]}

Supply reported IC50 belonging to this molecule: O=C(CCCCl)NC1=NN(c2ccccc2)C(=O)C1
30.9 µM (active)

Annotate the molecule COc1cc(/C=c2\sc3n(c2=O)CCCN=3)ccc1O with its measured IC50.
16.2 µM (active)

Let me know recorded IC50 for CC[C@H](C)/C=C/C1=CC2=C(Cl)C(=O)[C@@]3(C)OC(=O)C(C(=O)[C@H](C)[C@@H](C)O)=C3C2=CO1 , thanks.
44 µM (active)

Check the records and state IC50 for Nc1ccc(OC(=O)Nc2ccc(O)cc2)cc1
6.52 µM (active)

Quickly give me recorded IC50 for O=c1oc2c3c4c(cc2s1)CCCN4CCC3
17.9 µM (active)

Supply IC50 value. Item: C[C@@H]1O[C@@H](OC2C(O)C(OCCc3ccc(O)c(O)c3)OC(CO)C2OC(=O)/C=C/c2ccc(O)c(O)c2)[C@H](O)[C@H](O)[C@H]1O (stereo partly drawn)
3.26 µM (active)

Fill in IC50 for record NS(=O)(=O)c1ccc(N/N=C/c2ccc[nH]2)c([N+](=O)[O-])c1
65.5 µM (active)

---

Entries and their EC50 values follow.
Assay: Luminescence Cell-Based Dose Response HTS to Identify Activators of Luciferase Translation or Activity in H4 […] Cells. [Related pubchem assays: 1829 (Project Summary), 1814 (Primary HTS)]
Type: functional
The source made the active and inactive calls.

{"columns": ["smiles-repr", "EC50"],
 "data": [
  ["O=C(COC(=O)c1ccc2[nH]c3c(c2c1)CCCC3)Nc1ccccc1", "41.9 µM (active)"],
  ["CCN(C(=O)COC(=O)/C=C/c1cnc2ccccc2n1)c1ccccc1", "0.49 µM (active)"],
  ["O=C(Cn1c(=S)nc2ccccn21)N1CCc2ccccc2C1", "30.2 µM (active)"]
]}

Now look at this one.
Read off the recorded EC50 for Cc1ccc2[nH]c(/C(C#N)=C/c3c[nH]nc3-c3ccc(F)cc3)nc2c1
5.96 µM (active)

---

Target: Heat shock protein HSP 90-alpha (Homo sapiens)
Assay type: functional, organism-based
The source made the active and inactive calls.
measured-parameter: AC50

Given O=C1CC(N2CCC(c3nc4ccccc4o3)CC2)C(=O)N1c1ccc(Cl)c(C(F)(F)F)c1 (configuration not stated) , respond with its AC50.
2.08 µM (active)

---

Assay: inhibitors of firefly luciferase expression or activity, dose response, H4 neuroglioma cells, luminescence (AID 1990)
Format: functional, cell-based
The source made the active and inactive calls.
measured-parameter: EC50

{"columns": ["compound", "recorded-result"],
 "data": [
  ["Cc1nn(-c2ccccc2Cl)c(Cl)c1/C=N/Nc1nc2ccccc2s1", "< 0.1 µM (active)"],
  ["S=C(Nc1cc(Cl)cc(Cl)c1)NC1CCN(Cc2ccccc2)CC1", "> 120 µM (not active)"],
  ["COc1ccc(C(O)(CC(C)C)C(CN2CCOCC2)c2ccccc2)cc1 (configuration not stated)", "10.6 µM (active)"]
]}

Output EC50 of CCOC(=O)c1c(C)[nH]c(C(=O)Cn2c(=O)c3c(ncn3CC)n(Cc3ccccc3)c2=O)c1C
> 120 µM (not active)

Please supply the value of reported EC50 for the item Cc1ccc(-c2ccnc3c(Cl)c(C)nn23)cc1
> 120 µM (not active)

// fetch EC50 given entry Nc1ccc(OC(=O)Nc2ccc(O)cc2)cc1
11.2 µM (active)

Answer with reported EC50 of CCCCSc1nc2c(c(=O)n1CC)SC(C)C2 (configuration not stated)
15.3 µM (active)

---

Biological target: Corticotropin-releasing factor receptor 2/Corticotropin-releasing factor-binding protein (Homo sapiens, UniProt P24387+Q13324)
Sequence (Q13324 whole entry): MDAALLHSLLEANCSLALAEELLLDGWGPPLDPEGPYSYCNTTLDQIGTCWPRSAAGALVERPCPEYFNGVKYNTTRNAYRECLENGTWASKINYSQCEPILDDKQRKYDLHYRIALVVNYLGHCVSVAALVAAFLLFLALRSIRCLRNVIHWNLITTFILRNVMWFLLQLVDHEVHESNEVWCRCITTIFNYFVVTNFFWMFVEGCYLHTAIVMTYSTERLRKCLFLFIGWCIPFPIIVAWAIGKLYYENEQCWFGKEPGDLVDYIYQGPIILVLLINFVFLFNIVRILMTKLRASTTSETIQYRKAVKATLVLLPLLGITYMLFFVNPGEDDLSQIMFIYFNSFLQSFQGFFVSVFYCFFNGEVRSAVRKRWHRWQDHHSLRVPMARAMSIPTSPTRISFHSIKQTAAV
Sequence (P24387 whole entry): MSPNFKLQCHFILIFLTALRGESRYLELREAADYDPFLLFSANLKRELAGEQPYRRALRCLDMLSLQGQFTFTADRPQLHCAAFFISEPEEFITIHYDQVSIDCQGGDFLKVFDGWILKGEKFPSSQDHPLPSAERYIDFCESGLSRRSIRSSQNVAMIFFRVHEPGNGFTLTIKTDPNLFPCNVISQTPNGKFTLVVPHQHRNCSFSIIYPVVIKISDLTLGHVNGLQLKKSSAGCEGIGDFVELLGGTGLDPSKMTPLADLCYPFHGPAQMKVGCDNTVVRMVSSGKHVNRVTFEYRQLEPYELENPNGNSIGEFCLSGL
Experiment: activators of CRF receptor 2 with binding protein – uHTS hits, confirmation (AID 602473)
Assay type: functional
Details: read-out: EC50_Mean
The source made the active and inactive calls.
Select the matching outcome among active, inactive

Take a look at these entries with their results.
{"columns": ["compound", "label-value"],
 "data": [
  ["Cc1ccc2oc(=O)c(/C=C(\\O)c3ccco3)nc2c1", "active"],
  ["CCCCNC(=O)CCn1c(=O)c2ccccc2n(Cc2ccccc2C)c1=O", "inactive"],
  ["CN(C(=O)CCS(=O)(=O)c1ccc2c(c1)oc(=O)n2C)C1CCCCC1", "inactive"],
  ["CC(C)(C)OC(=O)N1CCCN(C(=O)Nc2cccc(Cl)c2)CC1", "inactive"],
  ["Cc1ccccc1NS(=O)(=O)c1cc2c(cc1C)NC(=O)CO2", "inactive"],
  ["Cc1ccc(OCC(=O)Nc2ccc([N+](=O)[O-])cn2)cc1C", "inactive"],
  ["CC(=O)c1ccc(NC(=O)C(C)OC(=O)c2ccc(Br)o2)cc1 (centres undefined)", "inactive"],
  ["Cc1cccc(-n2c(SCC(=O)N3CC(=O)Nc4ccccc43)nc3ccccc3c2=O)c1C", "inactive"]
]}

What classification did N#Cc1ccc(NC(=O)COC(=O)CSc2nnc(-c3ccc(Cl)cc3)o2)cc1 end up with in this test?
inactive

---

Biological target: Caspase-3 (Homo sapiens);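 note: Dose-response selectivity test against caspase-3 for candidate inhibitors of sentrin-specific proteases (SENPs)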
Assay type: functional
The source made the active and inactive calls.
measured-parameter: IC50

{"columns": ["smiles-repr", "target-of-assay", "recorded-result"],
 "data": [
  ["O=C(COC(=O)c1ccc([N+](=O)[O-])s1)c1ccc[nH]1", "Caspase-3 (Homo sapiens)", "10.2 µM (active)"],
  ["O=c1[nH]c(/C=C/c2ccccc2Cl)nc2ccccc12", "Caspase-3 (Homo sapiens)", "1.61 µM (active)"],
  ["O=C(OCc1ccccc1Cl)c1cccnc1Cl", "Caspase-3 (Homo sapiens)", "23.5 µM (active)"],
  ["O=C(Nc1ccccc1)Nc1ccccc1C(=O)NCc1ccccc1", "Caspase-3 (Homo sapiens)", "39.4 µM (active)"],
  ["COc1ccc(C(=O)COC(=O)c2ccccc2O)c(OC)c1", "Caspase-3 (Homo sapiens)", "27.6 µM (active)"],
  ["Oc1[nH]c2ccccc2c1N=Nc1nc2ccccc2s1", "Caspase-3 (Homo sapiens)", "27.6 µM (active)"]
]}

Attention now turns to another entry.
# return recorded IC50 for entry Cc1ccc(O)c(C2=Nc3ccccc3C2(C)C)c1
22.5 µM (active)
